Value source: PubChem BioAssay

Assay: basal RPMI8226 mitochondrial membrane potential changes, profiling panel, cell-based, JC-1 fluorescence, 24 h, 100 nL compound (AID 1169); note: test concentration not given here
Conditions: RPMI8226 myeloma, JC-1 mitochondrial potential fluorescence, higher = more signal
measured attribute: z-score

{"molecule": "C=C(COC)C(=O)CC[C@@H](OC(=O)c1cccnc1)c1cccc(OCCO)c1", "readout value": -0.26}
{"molecule": "COC(=O)[C@@]1(Cc2ccc(OC)cc2)[C@H]2c3cc(C(=O)N(C)C)n(Cc4ccsc4Br)c3C[C@H]2CN1C(=O)c1ccccc1", "readout value": -0.484}
{"molecule": "C=CCN1C(=O)[C@]2(O[C@H](CCn3cc([C@H](O)c4ccccc4)nn3)[C@@H]([Si](C)(C)c3ccc(OC)cc3)[C@@H]2C)c2cc(N3C(=O)c4cccc5cccc3c45)ccc21", "readout value": -1.02}
{"molecule": "CCCC=C(CCC)[C@@H](NC(=O)c1ccccc1)c1ccc(C(=O)OC)cc1", "readout value": -0.515}
{"molecule": "O=C1c2ccccc2[C@](Cc2ccccc2I)(C(=O)O)[C@H](c2ccc(CO)cc2)N1Cc1ccccc1", "readout value": -0.601}
{"molecule": "CCCCN1CC=CC23O[C@@H]4C=CCOC(=O)[C@@H]4[C@H]2C(=O)N(C(CO)C(C)C)[C@@H]3C1=O (stereo not given in full)", "readout value": 0.184}
{"molecule": "C=CC[C@]1(C(=O)NCCCOC)N=C(c2ccc(OCCCO)cc2)O[C@H]1c1ccccc1", "readout value": -0.446}
{"molecule": "CC(C)CNC(=O)[C@@H]1c2ccccc2C(=O)N(CC23CC4CC(CC(C4)C2)C3)[C@H]1c1ccc(CO)cc1", "readout value": -0.217}
{"molecule": "NCCCC[C@@H]1NC(=O)[C@H]2C[C@@H](C(=O)NCc3ccc(F)cc3)[C@@H](c3ccc(O)cc3)N2C1=O", "readout value": 0.667}
{"molecule": "COc1ccc(CCNC(=O)[C@@]2(Sc3ccc(C)cc3)CC(=O)N(C(C)C)[C@@H]2c2ccc(CO)cc2)cc1", "readout value": 0.043}
{"molecule": "CC(=O)NCCCC[C@@H]1NC(=O)[C@H]2C[C@@H](C(=O)NCCCCCC[N+](C)(C)C)[C@@H](c3ccc(O)cc3)N2C1=O", "readout value": 0.0883}
{"molecule": "COc1ccc([Si](C)(C)[C@@H]2[C@@H](CCO)O[C@]3(C(=O)N(Cc4ccccc4)c4ccc(N5C(=O)c6ccccc6Oc6ccccc65)cc43)[C@H]2C)cc1", "readout value": -0.848}
{"molecule": "COCC(=C=CC[C@@H](O)c1cccc(OCCO)c1)C[C@@H](O)COCc1ccccc1", "readout value": 0.539}
{"molecule": "COCCCN1C(=O)[C@@]2(Cc3ccccc31)c1ccccc1C(=O)N(Cc1ccccc1OC)[C@H]2c1ccc(CO)cc1", "readout value": 0.695}
{"molecule": "[N-]=[N+]=NCc1ccccc1[C@H]1OC(c2ccc(OCCCO)cc2)=N[C@@]1(Cc1ccccc1)C(=O)N1CCOCC1", "readout value": -0.887}
{"molecule": "COc1ccc(NN2C(C(O)c3cc(C(F)(F)F)cc(C(F)(F)F)c3)C=CC3C(=O)N(C4CCCCC4)C(=O)C32)cc1 (stereo not given)", "readout value": 0.139}
{"molecule": "O=C1O[C@@H](c2ccccc2)[C@@H](c2ccccc2)N2[C@@H](c3ccc(O)cc3)[C@]3(C(=O)Nc4ccc(C#CC5=CCCCC5)cc43)[C@@H](C(=O)N3CCCCCCC3)[C@H]12", "readout value": -0.527}
{"molecule": "CCOC(=O)C[C@H]1[C@H](OC(=O)Cc2ccc3c(c2)OCO3)[C@@H](NC(=O)c2ccccc2)c2cc(OCCCO)ccc2N1C(=O)Cc1ccc(OC)cc1", "readout value": 0.133}
{"molecule": "NC(=O)NCC#Cc1ccc2c(c1)[C@]1(C(=O)N2)[C@H](C(=O)Nc2nc3ccccc3s2)[C@H]2C(=O)O[C@H](c3ccccc3)[C@H](c3ccccc3)N2[C@@H]1c1ccc(OCCO)cc1", "readout value": -1.14}
{"molecule": "C=CCC(OC(C)=O)[C@@H]1[C@@H](N(Cc2cc3ccccc3o2)C(=O)c2ccc(-c3ccccc3)cc2)c2cc(OCCCO)ccc2N1C(=O)c1ccc2ccccc2n1 (stereo not given in full)", "readout value": -0.202}
{"molecule": "COc1ccccc1CN1C(=O)c2ccccc2[C@](Cc2ccccc2I)(C(=O)NCCCN(C)C)[C@@H]1c1ccc(CO)cc1", "readout value": -1.03}
{"molecule": "CN(C)CCCCNC(=O)[C@H]1C[C@H]2C(=O)N[C@@H](Cc3ccccc3)C(=O)N2[C@H]1c1cccc(OCCO)c1", "readout value": 0.264}
{"molecule": "C=C(C(=O)CC[C@@H](OC(C)=O)c1cccc(OCCO)c1)C(C)C", "readout value": 0.592}
{"molecule": "O=c1cccc(-c2ccccc2C(F)(F)F)o1", "readout value": 0.835}
{"molecule": "C[C@H]1C2[C@H](Cc3ccccc3)NC(=O)[C@]23C(=O)NCC(=O)N2CCC[C@H]2C(=O)NC/C=C\\C/C=C/C3[C@@H]2O[C@]12C (stereo not given in full)", "readout value": -1.03}
{"molecule": "CC(C)[C@@H](C(=O)O)n1cc(-c2ccccc2)nn1", "readout value": 0.00787}
{"molecule": "COCCOC(=O)N1C(=O)[C@@]2(c3cc(C#CC4(O)CCCCCC4)ccc31)[C@H](c1ccc(OCCO)cc1)N1[C@H](c3ccccc3)[C@H](c3ccccc3)OC(=O)[C@H]1[C@@H]2C(=O)N1CCCCCCC1", "readout value": -0.468}
{"molecule": "CCCCNC(=O)c1ccc(C#C[Si](C)(C)C)c(OC(C)=O)c1", "readout value": -0.215}
{"molecule": "COc1cc(OC)c(C(O)C2C=CC3C(=O)N(c4ccccc4)C(=O)C3N2Nc2ccccc2F)cc1Br (stereo not given)", "readout value": 0.26}
{"molecule": "C=CCC(OC(C)=O)[C@@H]1[C@@H](N(Cc2cc3ccccc3o2)C(=O)Cc2ccc(OC)cc2)c2cc(OCCCO)ccc2N1C(=O)Cc1ccc2ccccc2c1 (stereo not given in full)", "readout value": 0.00245}
